The following binders are shown together with reported log10 t1/2 values.
- Measurement target: T1, hPDGFRb.mmh (human, UniProt P09619 33-531)
- T1 construct: Soluble monomeric construct; also called soluble human PDGFR-beta.mmh
- T1 sequence (P09619 other isoform, or with tags, fused parts or gaps): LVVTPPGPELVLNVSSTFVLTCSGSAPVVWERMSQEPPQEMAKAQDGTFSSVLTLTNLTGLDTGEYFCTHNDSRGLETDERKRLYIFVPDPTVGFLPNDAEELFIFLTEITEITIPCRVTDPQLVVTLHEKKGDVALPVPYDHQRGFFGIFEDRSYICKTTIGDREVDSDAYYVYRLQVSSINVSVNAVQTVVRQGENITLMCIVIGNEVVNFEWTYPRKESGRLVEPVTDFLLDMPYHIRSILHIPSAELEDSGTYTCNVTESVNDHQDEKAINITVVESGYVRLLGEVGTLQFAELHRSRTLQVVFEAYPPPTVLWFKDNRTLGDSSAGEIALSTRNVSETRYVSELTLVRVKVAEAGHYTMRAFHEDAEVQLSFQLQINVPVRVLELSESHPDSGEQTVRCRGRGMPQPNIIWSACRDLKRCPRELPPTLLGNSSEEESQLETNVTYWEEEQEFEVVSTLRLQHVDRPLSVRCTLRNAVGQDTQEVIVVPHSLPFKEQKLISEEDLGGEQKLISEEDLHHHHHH
- Test method notes: SPR, mAb captured, 37 C
- Description: Antibodies, expressed as either mouse Fc (prefix H1M; H2M) or human Fc (prefix H4H), were captured on their respective anti-Fc sensor surfaces (Mab capture format). […] Kinetic association (kₐ) and dissociation (kd) rate constants were determined by processing and fitting the data to a 1:1 binding model using Scrubber 2.0 curve fitting software.
Hello, just confirming the data are log10 of t1/2 with units of min.

Here is how some binders turned out for log10 t1/2.
| Binder | log10 t1/2 |
| --- | --- |
| H1M3374N (antibody, V domains shown, mouse Fc format; also called H2M3374N) VH: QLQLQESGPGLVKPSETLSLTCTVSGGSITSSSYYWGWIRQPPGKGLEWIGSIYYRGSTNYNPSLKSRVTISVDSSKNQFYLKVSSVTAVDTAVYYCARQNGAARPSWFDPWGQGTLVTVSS VL: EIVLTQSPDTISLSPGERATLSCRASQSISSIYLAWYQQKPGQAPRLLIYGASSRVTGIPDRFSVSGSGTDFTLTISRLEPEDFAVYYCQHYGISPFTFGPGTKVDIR | 1.18 |
| H4H3095S (antibody, human IgG4, V domains shown, human IgG4 Fc (H4H prefix)) VH: EVQLVESGGGLVQPGGSLRLSCGASGFTFSSYWMTWVRQAPGKGLEWVGNINQDGSEKYSVDSVKGRFTISRDNAKNSLYLQMNRVRAEDTAVYYCSRDLVPPRQGDNYYYFGMDVWGLGTTVTVSS VL: DIQMTQSPSTLSASVGDRVIITCRASQNINNWLAWYQQQPGKAPKLLIYEASSLESGVPSRFSGSGSGTEFTLTIGSLQPDDFATYYCQHYNSYSRTFGQGTKVDIK | 0.30 |
| H4H3103S (antibody, human IgG4, V domains shown, human IgG4 Fc (H4H prefix)) VH: EVQLLQSGGGLVQPGGSLRLSCAASGFTFSHYWMSWVRQGPGKGLEWVATIKKDGSESYYVDSVRGRFTISRDNAKNSLYLQMNSLRTEDTAVYYCARDIVTPNVGYYFGMDVWGQGTTVTVSS VL: DIQMTQSPSTLSASVGDRVTITCRASQSISSWLSWYQQKPGKAPKLLIYMASTLESGVPSRFSGSGSGTDFTLTITSLQPDDFATYYCQQSNSYSRTFGHGTKLEIK | 0.30 |
| H4H3102S (antibody, human IgG4, V domains shown, human IgG4 Fc (H4H prefix)) VH: EVQLVESGGDLVHPGRSLRLSCVASGFTFDDYTMHWVRQAPGKGLEWVSAISWNGDNINYAGSVKGRFTISRDNAKNSLYLEMNSLRVEDTAFYYCAKGRGFSFGFNYLGQGTMVTVSS VL: AIRMTQSPSSLSASVGDRVTITCRASQDISNYLAWFQQQPGKAPKSLIYATSSLNSGVPSKFSGSGSGTDFTLTISSLQPEDFATYYCQQYKSYPLTFGGGTKVEIK | 0.90 |
| H4H3105S (antibody, human IgG4, V domains shown, human IgG4 Fc (H4H prefix)) VH: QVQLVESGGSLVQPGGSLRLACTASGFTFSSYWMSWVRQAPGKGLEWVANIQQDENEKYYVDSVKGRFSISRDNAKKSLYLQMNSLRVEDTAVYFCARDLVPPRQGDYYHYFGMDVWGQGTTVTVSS VL: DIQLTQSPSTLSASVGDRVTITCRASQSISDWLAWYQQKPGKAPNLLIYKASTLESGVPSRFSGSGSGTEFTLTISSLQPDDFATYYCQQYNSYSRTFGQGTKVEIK | 0.48 |

Would you mind telling me what log10 t1/2 value was observed for H1M3361N (antibody, mouse IgG1, V domains shown, mouse IgG1 Fc (H1M prefix)) VH: EVQLVESGGGLVQPGGSLRLSCAASGFTFSSYWMTWVRQAPGKGLEWVANIRQDGSDKYYVDSVKGRFTISRDNAKNSLFLQMNSLRAEDTAVYYCARTNGGTYGYNHYYYGMDVWGQGTTVTVSS VL: DIQMTQSPSSLSASVGDRVTITCRASQGIRNDLGWYQLKPGKAPKRLIFAASSLQSGVPSRFSGSGSGTEFTLTISSLQPEDFATYYCLQHNSYPWTFGQGTKVEIK ?
0.15

Entry to check: H2M3368N (antibody, V domains shown, mouse Fc (H2M prefix; isotype not spelled out)) VH: QVQLQQWGAGLLKPSETLSLTCAVYGGSFSGYYWTWIRQSPGKGLEWMGEISHRGTTNYNPSLKSRLTISLDTSNNHFSLKLSSVTAADTAVYYCAREERLGMGYDYFGLDVWGQGTTVTVSS VL: EIVLTQSPATLSLSPGERATLSCRASQSVSTYLTWYQQKPGQAPRLLIYDASNRATGIPARFSGSGSGTDFTLTISSLEPEDCAVYYCQQRSIWITFGQGTRLEIK
1.15

Entry to check: H2M3373N (antibody, V domains shown, mouse Fc (H2M prefix; isotype not spelled out)) VH: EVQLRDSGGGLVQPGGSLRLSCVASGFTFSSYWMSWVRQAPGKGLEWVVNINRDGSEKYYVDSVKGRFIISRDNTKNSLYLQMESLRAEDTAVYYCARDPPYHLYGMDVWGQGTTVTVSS VL: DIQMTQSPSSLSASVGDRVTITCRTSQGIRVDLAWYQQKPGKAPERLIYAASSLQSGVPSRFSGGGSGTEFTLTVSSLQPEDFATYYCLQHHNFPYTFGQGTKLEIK
-0.05

Entry to check: H4H3096S (antibody, human IgG4, V domains shown, human IgG4 Fc (H4H prefix)) VH: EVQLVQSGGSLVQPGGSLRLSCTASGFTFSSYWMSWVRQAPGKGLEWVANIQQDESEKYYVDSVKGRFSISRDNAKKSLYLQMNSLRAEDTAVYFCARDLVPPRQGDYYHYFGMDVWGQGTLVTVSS VL: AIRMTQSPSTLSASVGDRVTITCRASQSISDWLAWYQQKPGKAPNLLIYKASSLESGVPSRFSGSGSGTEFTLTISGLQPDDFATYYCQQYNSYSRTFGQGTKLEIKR
0.30

Entry to check: H4H3094P (antibody, human IgG4, V domains shown, also called H4H3394P) VH: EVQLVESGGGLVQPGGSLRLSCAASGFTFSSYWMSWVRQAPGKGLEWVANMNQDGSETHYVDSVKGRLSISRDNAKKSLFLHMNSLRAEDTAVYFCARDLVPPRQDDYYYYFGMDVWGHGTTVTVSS VL: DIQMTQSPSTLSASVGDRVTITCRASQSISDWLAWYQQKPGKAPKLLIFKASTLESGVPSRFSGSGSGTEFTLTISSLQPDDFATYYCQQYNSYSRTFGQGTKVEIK
0.90
